Molecular target: S1P3 (Homo sapiens (Human))
Sequence (Q99500 whole entry, species assumed): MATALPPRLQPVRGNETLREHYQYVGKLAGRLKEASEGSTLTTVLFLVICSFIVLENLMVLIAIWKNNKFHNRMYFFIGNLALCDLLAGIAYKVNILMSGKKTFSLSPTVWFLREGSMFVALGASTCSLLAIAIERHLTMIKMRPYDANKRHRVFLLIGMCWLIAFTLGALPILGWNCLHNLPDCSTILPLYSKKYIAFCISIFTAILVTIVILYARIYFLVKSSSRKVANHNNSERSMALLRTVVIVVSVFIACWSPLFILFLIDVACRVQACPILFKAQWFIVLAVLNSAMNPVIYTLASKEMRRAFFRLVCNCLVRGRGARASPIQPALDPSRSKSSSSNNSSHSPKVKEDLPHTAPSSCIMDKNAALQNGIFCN
Assay: 35S-GTPγS binding assay, S1P3 membranes
Conditions: membranes from CHO cells expressing S1P3; read-out: S1P3 GTPyS EC50
Experimental: Membranes were prepared from CHO cells expressing S1P1 or S1P3 for use in ligand and 355-GTPγS binding studies. […] Binding was performed for 60 min at room temperature on a shaker and bound radioactivity was measured on a PerkinElmer 1450 MicroBeta counter. Specific binding was calculated by subtracting remaining radioactivity in the presence of 1000-fold excess of unlabeled S1P. Binding data were analyzed using the GraphPad Prism program. […]
pEC50 for assorted compounds
Scale explanation: pEC50 corresponds to minus log10 of a concentration expressed in moles per litre.

O=C(O)CCCS(=O)(=O)c1ccc(NC(=O)c2cc(N(CC3CC3)C3CCCCC3)ncn2)cc1 :: 7.07

// next entry
Prompt line: Record request: pEC50 value, item `Cc1cc2[nH]ncc2cc1NC(=O)c1cc(N(CC2CC2)C2CCCCC2)ncn1`
Response line: 5.49

* * *

target: UniProtKB Q99500; assay: 35S-GTPγS binding assay, S1P3 membranes; details: membranes from CHO cells expressing S1P3; read-out: S1P3 GTPyS EC50
pEC50: −log10 of the molar value.
pEC50 for assorted compounds

Example cases with answers are listed next.
O=C(Nc1ccc(O)c2ccccc12)c1cc(NC2CCCCC2)ncn1 :: < 4.52
O=C(Nc1ccc(O)cc1)c1cc(NC2CCCCC2)ncn1 :: < 4.52
O=C(Nc1ccc(O)cc1Cl)c1cc(NC2CCCCC2)ncn1 :: < 4.52

Prompt line: Query (compound): `COC(=O)CCNCc1ccc(NC(=O)c2cc(N(CC3CC3)C3CCCCC3)ncn2)cc1` ; field requested: pEC50
Response line: 6.11

Prompt line: What about `CNS(=O)(=O)c1ccc(NC(=O)c2cc(N(CC3CC3)C3CCCCC3)ncn2)c(C)c1` ?
Response line: 5.61

Prompt line: # repeat for `CCCN(CC1CC1)c1cc(C(=O)Nc2ccc(CO)cc2C)ncn1`
Response line: < 4.70

Prompt line: Item: `CCCN(CC1CC1)c1cc(C(=O)Nc2ccc(S(=O)(=O)NCCC(=O)O)cc2C)ncn1`
Response line: 5.25

Prompt line: Try this compound next: `CCCN(CC1CC1)c1cc(C(=O)Nc2ccc(S(=O)(=O)NC)cc2C)ncn1`
Response line: < 4.70

Prompt line: `Cc1cc(S(=O)(=O)NCCCC(=O)O)ccc1NC(=O)c1cc(N(CC2CC2)C2CCCCC2)ncn1` , same question.
Response line: 5.88

Prompt line: One more compound: `CC(C)CN(c1cc(C(=O)Nc2ccc3[nH]ncc3c2)ncn1)C1CCCC1`
Response line: 6.18

Prompt line: Repeat with `O=C(Nc1ccc(O)cc1)c1cc(OC2CCCCC2)ncn1`
Response line: < 4.52

* * *

The entries below are paired with their reported EC50.
biological target: UniProtKB Q99500; experiment: 35S-GTPγS binding assay, S1P3 membranes; conditions: membranes from CHO cells expressing S1P3; read-out: S1P3 GTPyS EC50
Reply numerically in nM, unit not repeated.

O=C(Nc1ccnc2ccccc12)c1cc(N(CC2CC2)C2CCCCC2)ncn1 :: 1160

Prompt line: Fill in the blank: the reported EC50 of `Cc1cc2[nH]ncc2cc1NC(=O)c1cc(N(C)C2CCCCC2)ncn1` is ____.
Response line: 2330
